- tgt: fACC2 (UniProt Q00955)
- Sequence (Q00955 whole entry): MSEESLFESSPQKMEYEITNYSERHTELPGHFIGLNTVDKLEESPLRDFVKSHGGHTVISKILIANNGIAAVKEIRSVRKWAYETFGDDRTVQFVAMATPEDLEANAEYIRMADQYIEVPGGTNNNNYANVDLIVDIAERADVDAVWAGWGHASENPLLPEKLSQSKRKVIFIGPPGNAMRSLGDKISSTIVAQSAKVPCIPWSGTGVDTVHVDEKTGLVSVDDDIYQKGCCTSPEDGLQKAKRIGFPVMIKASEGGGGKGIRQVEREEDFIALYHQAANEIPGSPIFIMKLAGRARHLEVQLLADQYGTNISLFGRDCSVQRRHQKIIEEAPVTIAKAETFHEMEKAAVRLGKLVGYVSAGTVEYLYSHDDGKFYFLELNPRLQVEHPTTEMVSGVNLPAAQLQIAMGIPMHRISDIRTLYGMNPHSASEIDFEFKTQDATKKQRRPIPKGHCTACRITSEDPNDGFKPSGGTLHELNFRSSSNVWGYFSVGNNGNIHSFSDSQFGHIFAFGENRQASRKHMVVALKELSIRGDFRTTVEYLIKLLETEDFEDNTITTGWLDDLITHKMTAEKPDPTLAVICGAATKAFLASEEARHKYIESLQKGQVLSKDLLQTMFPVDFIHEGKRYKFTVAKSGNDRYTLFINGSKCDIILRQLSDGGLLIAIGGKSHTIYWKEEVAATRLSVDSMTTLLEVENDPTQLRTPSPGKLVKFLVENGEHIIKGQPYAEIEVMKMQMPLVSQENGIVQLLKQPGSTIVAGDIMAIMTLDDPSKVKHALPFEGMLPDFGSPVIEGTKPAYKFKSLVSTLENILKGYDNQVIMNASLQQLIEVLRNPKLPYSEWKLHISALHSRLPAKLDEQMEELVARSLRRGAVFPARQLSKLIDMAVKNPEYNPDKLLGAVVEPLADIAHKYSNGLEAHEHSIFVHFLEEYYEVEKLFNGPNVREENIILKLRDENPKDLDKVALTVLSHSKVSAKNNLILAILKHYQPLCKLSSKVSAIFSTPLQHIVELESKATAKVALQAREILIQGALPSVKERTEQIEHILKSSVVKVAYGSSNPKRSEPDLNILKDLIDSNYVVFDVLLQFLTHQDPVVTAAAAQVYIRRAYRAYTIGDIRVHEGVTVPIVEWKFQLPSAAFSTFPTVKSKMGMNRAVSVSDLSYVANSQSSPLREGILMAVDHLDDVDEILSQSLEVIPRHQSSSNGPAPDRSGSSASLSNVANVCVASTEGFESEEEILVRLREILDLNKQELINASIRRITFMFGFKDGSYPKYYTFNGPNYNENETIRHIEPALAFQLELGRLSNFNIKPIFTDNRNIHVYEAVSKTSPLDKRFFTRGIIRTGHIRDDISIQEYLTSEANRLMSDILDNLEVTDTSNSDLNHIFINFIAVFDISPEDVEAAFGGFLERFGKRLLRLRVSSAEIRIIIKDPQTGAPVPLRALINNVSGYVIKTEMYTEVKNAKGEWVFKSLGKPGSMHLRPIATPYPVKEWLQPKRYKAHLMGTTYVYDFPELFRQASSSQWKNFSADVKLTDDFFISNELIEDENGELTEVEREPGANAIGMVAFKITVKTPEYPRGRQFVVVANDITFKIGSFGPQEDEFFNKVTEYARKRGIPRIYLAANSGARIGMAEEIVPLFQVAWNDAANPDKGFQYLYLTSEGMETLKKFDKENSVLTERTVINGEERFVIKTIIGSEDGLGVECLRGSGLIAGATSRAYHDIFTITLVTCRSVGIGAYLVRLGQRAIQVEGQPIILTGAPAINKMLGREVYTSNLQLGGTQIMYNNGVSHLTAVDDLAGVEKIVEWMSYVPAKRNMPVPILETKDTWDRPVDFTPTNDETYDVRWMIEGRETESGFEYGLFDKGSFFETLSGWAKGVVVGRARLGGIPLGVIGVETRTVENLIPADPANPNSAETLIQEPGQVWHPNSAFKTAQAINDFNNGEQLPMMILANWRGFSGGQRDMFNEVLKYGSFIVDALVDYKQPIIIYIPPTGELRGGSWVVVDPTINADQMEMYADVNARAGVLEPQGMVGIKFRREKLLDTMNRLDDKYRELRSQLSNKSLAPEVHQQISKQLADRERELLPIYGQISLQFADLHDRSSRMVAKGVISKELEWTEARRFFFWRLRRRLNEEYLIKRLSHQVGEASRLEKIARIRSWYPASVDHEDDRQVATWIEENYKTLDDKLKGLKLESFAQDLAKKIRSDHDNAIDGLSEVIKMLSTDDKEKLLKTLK
- test: In vitro ACC2 inhibition assay (ADP-Glo), fungal ACC2
- Assay type: biochemical
- stated_conditions: Table 2b (additional results)
pIC50: −log10 of the molar value.
Quick list: pIC50 per entry.

smiles_repr=CCOC(=O)c1sc2c(c1C)c(=O)n(C(C)(C)C(N)=O)c(=O)n2C[C@H](OCCO)c1cc(F)ccc1OC result="8.52 to 9.52"

// next item, pIC50 requested
Sure, the documented pIC50 for CCOC(=O)c1sc2c(c1C)c(=O)n(C(C)(C)C(=O)N1CCCC1)c(=O)n2C[C@H](O)c1cc(F)ccc1OC is 8.52 to 9.52
